# TARGET: D4 receptor (Homo sapiens, UniProt P21917)
# Construct: expressed in transfected cells; host or cells: CHO cells
# Sequence (P21917 whole entry): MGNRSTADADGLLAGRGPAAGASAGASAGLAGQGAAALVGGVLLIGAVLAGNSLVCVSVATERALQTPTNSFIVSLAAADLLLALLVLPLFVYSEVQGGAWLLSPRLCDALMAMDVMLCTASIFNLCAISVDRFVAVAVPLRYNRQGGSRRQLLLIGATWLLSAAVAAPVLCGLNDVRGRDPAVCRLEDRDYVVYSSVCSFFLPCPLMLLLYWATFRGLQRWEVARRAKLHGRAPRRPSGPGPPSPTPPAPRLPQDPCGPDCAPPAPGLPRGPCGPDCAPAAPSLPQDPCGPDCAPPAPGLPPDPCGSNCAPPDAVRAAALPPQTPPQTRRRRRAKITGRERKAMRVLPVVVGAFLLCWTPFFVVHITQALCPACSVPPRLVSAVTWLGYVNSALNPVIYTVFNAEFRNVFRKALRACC
# TEST DETAILS: D4 receptor binding, [3H]-YM 09151-2 displacement
# CONDITION SUMMARY: CHO cell membranes, read-out: K1 (nM) for D4 (CHO cell membranes)
READOUT KIND: log10 of Ki (log10 of the value in nM)

[
  {
    "MOLECULE": "O=c1[nH]c2ccccc2n1CCN1CCN(c2ccc(O)c(C(F)(F)F)c2)CC1 [Compound 5]",
    "log10 of Ki": 1.25
  },
  {
    "MOLECULE": "O=c1[nH]c2c(O)cccc2n1CCN1CCN(c2cccc(C(F)(F)F)c2)CC1 [Compound 3]",
    "log10 of Ki": 1.53
  },
  {
    "MOLECULE": "O=c1[nH]c2ccc(O)cc2n1CCN1CCN(c2cccc(C(F)(F)F)c2)CC1 [Compound 2]",
    "log10 of Ki": 2.91
  },
  {
    "MOLECULE": "O=c1[nH]c2ccccc2n1CCN1CCN(c2cc(O)cc(C(F)(F)F)c2)CC1 [Compound 6]",
    "log10 of Ki": 1.39
  },
  {
    "MOLECULE": "O=c1[nH]c2cc(O)ccc2n1CCN1CCN(c2cccc(C(F)(F)F)c2)CC1 [Compound 1]",
    "log10 of Ki": 2.46
  },
  {
    "MOLECULE": "O=c1[nH]c2cccc(O)c2n1CCN1CCN(c2cccc(C(F)(F)F)c2)CC1 [Compound 4]",
    "log10 of Ki": 2.81
  }
]
